assayInfo: Hepatocyte Stability Assay, human hepatocytes
Format: in vitro ADME
conditionSummary: cryopreserved hepatocytes, read-out: Human Heps CLint
quantityKind: CLint scaled at 1 μM

>>> recordedmeasurement("COC(=O)Nc1cc(Oc2cnc3nc(Nc4cc5n(n4)CCC54CCC4)n(C)c3c2C#N)ccn1")
"6 to 12 mL/min/kg"
>>> recordedmeasurement("CO[C@@H]1CCN(C(=O)Nc2cc(Oc3cnc4nc(Nc5cc6n(n5)CCC65CCC5)n(C)c4c3C#N)ccn2)C1")
"6 to 12 mL/min/kg"
>>> recordedmeasurement("Cn1cc(C(F)(F)F)cc(Nc2nc3ncc(Oc4ccnc(NC(=O)OCCN5CCOCC5)c4)c(C#N)c3n2C)c1=O")
"≤ 6 mL/min/kg"
>>> recordedmeasurement("CC(=O)Nc1cc(Oc2cnc3nc(Nc4cc(C(F)(F)F)cn(C)c4=O)n(C)c3c2Cl)c(F)cn1")
"12 to 20 mL/min/kg"
>>> recordedmeasurement("COCCOC(=O)Nc1cc(Oc2cnc3nc(Nc4cc5n(n4)CCC54CCC4)n(C)c3c2C#N)ccn1")
"6 to 12 mL/min/kg"
>>> recordedmeasurement("CC(=O)Nc1cc(Oc2cnc3nc(Nc4cc5n(n4)CCCC54CC4)n(C)c3c2C#N)ccn1")
"6 to 12 mL/min/kg"
>>> recordedmeasurement("Cn1c(Nc2cc3n(n2)CCC32CCC2)nc2ncc(Oc3ccnc(NC(=O)C4CC4)c3)c(C#N)c21")
"12 to 20 mL/min/kg"
